Target: recombinant human CETP protein (Homo sapiens (Human))
Assay: Test of CETP inhibition activity (in vitro, buffer-based)
Assay type: biochemical
Settings: [14C]-cholesteryl ester transfer from reconstituted HDL to acceptor lipoprotein, 37° C., 60 minutes, PBS buffer, disuccinate
readoutName: pIC50
# pIC50 is unitless: minus log10 of the molar concentration; print number only

For CC(C)(O)CCOc1cnc(N2CCC(c3nc4c(c(C5CCC(F)(F)CC5)c3[C@@H](F)c3ccc(C(F)(F)F)cc3)[C@@H](O)CC(C)(C)C4)CC2)nc1 [Example 8, disuccinate] , what is its reported pIC50?
7.64

====

Target: recombinant human CETP protein (Homo sapiens (Human), UniProt P11597)
Sequence (P11597 18-493): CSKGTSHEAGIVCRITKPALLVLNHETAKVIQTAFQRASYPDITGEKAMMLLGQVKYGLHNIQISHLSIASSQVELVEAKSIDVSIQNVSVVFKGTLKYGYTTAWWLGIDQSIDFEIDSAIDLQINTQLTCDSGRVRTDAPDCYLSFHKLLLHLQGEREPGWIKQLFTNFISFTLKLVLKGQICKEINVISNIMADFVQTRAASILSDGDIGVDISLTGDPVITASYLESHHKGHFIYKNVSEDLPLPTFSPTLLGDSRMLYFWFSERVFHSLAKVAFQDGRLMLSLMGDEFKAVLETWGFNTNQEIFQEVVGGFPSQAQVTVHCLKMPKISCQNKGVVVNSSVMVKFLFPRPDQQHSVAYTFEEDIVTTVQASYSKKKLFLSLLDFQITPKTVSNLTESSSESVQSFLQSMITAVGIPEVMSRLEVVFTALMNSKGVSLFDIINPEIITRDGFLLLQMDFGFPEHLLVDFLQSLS
Experiment: Test of CETP inhibition activity (in vitro, buffer-based)
Assay type: biochemical
Settings: [14C]-cholesteryl ester transfer from reconstituted HDL to acceptor lipoprotein, 37° C., 60 minutes, PBS buffer
Where a name gives a salt, the structure may show the parent alone.
Measured IC50 by item
Note to self: number, then unit, no commentary.

Answered examples (5):
CC(C)(O)CCOc1cnc(N2CCC(c3nc4c(c(C5CCC(F)(F)CC5)c3[C@@H](F)c3ccc(C(F)(F)F)cc3)[C@@H](O)CC(C)(C)C4)CC2)nc1 [Example 11]	28.9 nM
CC1(C)Cc2nc(C3CCN(c4ncc(OC[C@@H](O)CO)cn4)CC3)c([C@@H](F)c3ccc(C(F)(F)F)cc3)c(C3CCC(F)(F)CC3)c2[C@@H](O)C1 [Example 14, dihydrobromide]	38.2 nM
CC1(C)Cc2nc(C3CCN(c4ncc(OC[C@H](O)CO)cn4)CC3)c([C@@H](F)c3ccc(C(F)(F)F)cc3)c(C3CCC(F)(F)CC3)c2[C@@H](O)C1 [Example 16, dihydrobromide]	28.5 nM
CC1(C)Cc2nc(C3CCN(c4ncc(OCCCS(C)(=O)=O)cn4)CC3)c([C@@H](F)c3ccc(C(F)(F)F)cc3)c(C3CCC(F)(F)CC3)c2[C@@H](O)C1	22.9 nM
CC1(C)Cc2nc(C3CCN(c4ncc(OCC(CO)CO)cn4)CC3)c([C@@H](F)c3ccc(C(F)(F)F)cc3)c(C3CCC(F)(F)CC3)c2[C@@H](O)C1 [Example 2, dihydrobromide]	30.8 nM

For CC1(C)Cc2nc(C3CCN(c4ncc(OCC(C)(CO)CO)cn4)CC3)c([C@@H](F)c3ccc(C(F)(F)F)cc3)c(C3CCC(F)(F)CC3)c2[C@@H](O)C1 , what is its reported IC50?
28.5 nM

For CC(C)(O)CCOc1cnc(N2CCC(c3nc4c(c(C5CCC(F)(F)CC5)c3[C@@H](F)c3ccc(C(F)(F)F)cc3)[C@@H](O)CC(C)(C)C4)CC2)nc1 [Example 9] , what is its reported IC50?
11.6 nM
